- target.entity: CB1 (Homo sapiens, UniProt P21554)
- Sequence (P21554 whole entry): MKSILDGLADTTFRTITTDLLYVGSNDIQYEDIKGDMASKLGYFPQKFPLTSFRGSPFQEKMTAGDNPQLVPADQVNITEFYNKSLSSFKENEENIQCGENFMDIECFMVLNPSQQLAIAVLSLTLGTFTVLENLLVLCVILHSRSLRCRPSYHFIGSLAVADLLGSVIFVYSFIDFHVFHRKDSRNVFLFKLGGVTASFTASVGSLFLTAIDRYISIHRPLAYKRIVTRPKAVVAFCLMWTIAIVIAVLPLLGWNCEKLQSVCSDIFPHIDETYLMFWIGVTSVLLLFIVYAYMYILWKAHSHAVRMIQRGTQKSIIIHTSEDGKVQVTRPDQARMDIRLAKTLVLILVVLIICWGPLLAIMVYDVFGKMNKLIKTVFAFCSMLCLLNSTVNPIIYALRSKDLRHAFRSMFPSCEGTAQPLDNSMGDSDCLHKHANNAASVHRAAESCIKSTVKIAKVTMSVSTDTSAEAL
- protocol.description: CB1 Gαq16-coupled intracellular calcium mobilization assay in CHO-K1 cells
- Format: cell-based
Task for the reader: assign each of the following molecules its reported Kb.
A number alone suffices; assume nM.

Input Cc1c(C(=O)N[C@@H]2CCCN(S(C)(=O)=O)C2)nn(-c2ccc(Cl)cc2Cl)c1-c1ccc(Cl)cc1 [Compound 20d] . Output Kb: 7

Input CCCCNC(=O)N1CCC[C@H](NC(=O)c2nn(-c3ccc(Cl)cc3Cl)c(-c3ccc(Cl)cc3)c2C)C1 [Compound 19h] . Output Kb: 230

Input Cc1c(C(=O)N[C@H]2CCCN(S(C)(=O)=O)C2)nn(-c2ccc(Cl)cc2Cl)c1-c1ccc(Cl)cc1 [Compound 19d] . Output Kb: 62

Input CCOC(=O)N1CCC(NC(=O)c2nn(-c3ccc(Cl)cc3Cl)c(-c3ccc(Cl)cc3)c2C)CC1 [Compound 18l] . Output Kb: 3
